Kindly supply the reported pIC50 values for the records listed here.
biological target: VEGFR2 (Homo sapiens, UniProt P35968); test: VEGFR2 Cellular Assay (FLIPR, VEGF induced increases in intracellular calcium in HUVEC); assay type: cell-based; set-up: host or cells: HUVEC; conditions: VEGF165 stimulation (10 ng/mL), Fluo-4
Sequence (P35968 20-1356): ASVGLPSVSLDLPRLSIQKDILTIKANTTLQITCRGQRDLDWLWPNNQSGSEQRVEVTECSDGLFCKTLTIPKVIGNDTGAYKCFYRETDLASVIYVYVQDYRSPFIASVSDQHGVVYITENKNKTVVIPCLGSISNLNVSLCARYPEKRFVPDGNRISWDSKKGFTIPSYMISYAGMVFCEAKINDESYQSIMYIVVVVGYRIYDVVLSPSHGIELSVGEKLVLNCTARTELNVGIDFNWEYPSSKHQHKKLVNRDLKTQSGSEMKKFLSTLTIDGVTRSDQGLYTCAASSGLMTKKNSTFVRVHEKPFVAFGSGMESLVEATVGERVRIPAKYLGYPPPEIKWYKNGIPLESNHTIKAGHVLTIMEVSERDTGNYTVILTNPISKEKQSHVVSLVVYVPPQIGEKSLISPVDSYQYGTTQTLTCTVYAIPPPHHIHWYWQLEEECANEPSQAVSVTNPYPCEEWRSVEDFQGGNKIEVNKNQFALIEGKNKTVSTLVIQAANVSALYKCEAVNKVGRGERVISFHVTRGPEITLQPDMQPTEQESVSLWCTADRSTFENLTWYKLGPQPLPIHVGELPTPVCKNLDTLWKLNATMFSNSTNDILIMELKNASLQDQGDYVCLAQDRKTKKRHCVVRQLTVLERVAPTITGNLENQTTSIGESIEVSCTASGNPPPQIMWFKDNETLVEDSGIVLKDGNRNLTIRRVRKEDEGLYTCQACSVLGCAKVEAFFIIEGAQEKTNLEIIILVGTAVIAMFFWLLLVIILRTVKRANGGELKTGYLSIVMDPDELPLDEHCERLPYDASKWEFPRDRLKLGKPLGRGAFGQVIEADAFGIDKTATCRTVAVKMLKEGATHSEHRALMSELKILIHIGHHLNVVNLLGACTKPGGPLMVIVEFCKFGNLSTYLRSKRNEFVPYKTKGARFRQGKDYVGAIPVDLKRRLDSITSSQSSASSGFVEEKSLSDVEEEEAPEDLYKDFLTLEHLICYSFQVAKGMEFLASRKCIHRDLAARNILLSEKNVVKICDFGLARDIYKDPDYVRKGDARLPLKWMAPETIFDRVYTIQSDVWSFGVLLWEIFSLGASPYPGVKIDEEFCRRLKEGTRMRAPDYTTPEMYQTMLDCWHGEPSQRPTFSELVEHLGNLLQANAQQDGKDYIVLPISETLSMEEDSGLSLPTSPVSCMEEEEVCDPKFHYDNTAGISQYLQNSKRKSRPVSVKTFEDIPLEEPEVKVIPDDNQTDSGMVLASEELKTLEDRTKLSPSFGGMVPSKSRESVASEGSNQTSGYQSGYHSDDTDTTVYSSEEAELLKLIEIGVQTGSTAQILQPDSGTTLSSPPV
The scale used: pIC50 is minus the common logarithm of the concentration in molar units.

Given the entry `COC(=O)CCCCS(=O)(CCCCC(=O)OC)=NC(=O)c1cnc(N)c(C#Cc2cccc(NC(=O)c3cc(C(F)(F)F)ccc3F)c2)c1` , what pIC50 was observed with VEGFR2 (Homo sapiens, UniProt P35968)?
8.22

Given the entry `COC(=O)CCCCS(=O)(CCCCC(=O)OC)=NC(=O)c1cnc(N)c(C#Cc2cccc(NC(=O)c3cc(C)ccc3F)c2)c1` , what pIC50 was observed with VEGFR2 (Homo sapiens, UniProt P35968)?
7.31

Given the entry `COC(=O)CCCCS(=O)(CCCCC(=O)OC)=NC(=O)c1cnc(N)c(C#Cc2cccc(C(=O)Nc3cccc(OC)c3)c2)c1` , what pIC50 was observed with VEGFR2 (Homo sapiens, UniProt P35968)?
8.70

Given the entry `COC(=O)CCCCS(=O)(CCCCC(=O)OC)=NC(=O)c1cnc(N)c(C#Cc2cccc(NC(=O)Nc3cc(C)ccc3F)c2)c1` , what pIC50 was observed with VEGFR2 (Homo sapiens, UniProt P35968)?
7.64

Given the entry `COC(=O)CCCCS(=O)(CCCCC(=O)OC)=NC(=O)c1cnc(N)c(C#Cc2cccc(NC(=O)c3cccc(SC)c3)c2)c1` , what pIC50 was observed with VEGFR2 (Homo sapiens, UniProt P35968)?
8.40
